Tested on: L1210
Test: Cytotoxicity against mouse L1210 cells after 48 hrs by microculture tetrazolium assay
Assay type: functional, cell-based
Conditions: L1210, 48 h
Rule: measured IC50 below 30 µM gets Met; anything equal to or greater than 30 µM gets Not met.

> print(dat)
                                   compound  answer.label
1  COc1cc(OCC(COC(C)=O)OC(C)=O)cc2c1c(=O)c1ccccc1n2C (racemic)       Not met
2  COc1cc(OCC(O)CO)cc2c1c(=O)c1cc3ccccc3cc1n2C (racemic)       Not met
3  COc1cc(OCC2COC(=O)O2)cc2c1c(=O)c1cc3ccccc3cc1n2C (racemic)           Met
4  C=CCOc1cc(OC)c2c(=O)c3cc4ccccc4cc3n(C)c2c1       Not met
5  COc1cc2c(c3c1c(=O)c1cc4ccccc4cc1n3C)C[C@H]([C@@]1(C)CO1)O2 (racemic)           Met
6  COc1cc(OCC2CO2)cc2c1c(=O)c1cc3ccccc3cc1n2C (racemic)           Met
7  COc1cc(OCC2CO2)cc2c1c(=O)c1ccccc1n2C (racemic)           Met
8  COc1cc(OCC(O)CO)cc2c1c(=O)c1ccccc1n2C (racemic)       Not met

====

System: L1210
Assay: Cytotoxicity against mouse L1210 cells after 48 hrs by microculture tetrazolium assay
Format: functional, cell-based
Conditions: L1210, 48 h
pIC50: −log10 of the molar value.
Decision: pIC50 compared against 5; not below it gives Satisfied, below it gives Not satisfied.

> print(dat)
                                   compound   answer.label
1  COc1cc(OCC2COC(=O)O2)cc2c1c(=O)c1ccccc1n2C (racemic)  Not satisfied
2  COc1cc(OCC(COC(C)=O)OC(C)=O)cc2c1c(=O)c1cc3ccccc3cc1n2C (racemic)      Satisfied
3  COc1cc(OCC(O)COC(C)=O)cc2c1c(=O)c1ccccc1n2C (racemic)  Not satisfied
4  COc1cc(OCC(O)COC(C)=O)cc2c1c(=O)c1cc3ccccc3cc1n2C (racemic)      Satisfied
